Target: AmCA (Apis mellifera spermatheca carbonic anhydrase)
Experiment: AmCA inhibition, colorimetric CO2 hydrase assay
Assay type: biochemical
Conditions: AmCA from honey bee spermatheca, triplicate, enzyme concentration 8.9 nM
observed_property: pIC50
Kindly note that pIC50 refers to -log10 of the concentration in mol/L and answer with the value alone.

Q: What does the data say about its pIC50? Entry: CC1(C)C(C=C(Cl)Cl)C1C(=O)OC(C#N)c1cccc(Oc2ccccc2)c1 (centres unmarked)
A: 8.11

Q: What does the data say about its pIC50? Entry: `CCOP(=S)(OCC)Oc1cc(C)nc(C(C)C)n1`
A: 7.41

Q: What does the data say about its pIC50? Entry: `CNC(=O)O/N=C(\SC)C(=O)N(C)C`
A: 8.60

Q: What does the data say about its pIC50? Entry: `CNC(=O)ON=C(C)SC`
A: 8.64

Q: What does the data say about its pIC50? Entry: `CC1(C)[C@H](C(=O)O[C@H](C#N)c2cccc(Oc3ccccc3)c2)[C@@H]1C=C(Br)Br`
A: 8.55
